target: T1, human serum albumin (human, UniProt P02768 25-609); assay: SPR, single cycle kinetics, pH 7.4
T1 construct: also called HSA
Measurement kind: Kd (nM)
Give just the number in nM; leave the unit off.

Study these solved cases before continuing.
Quick one: Kd for H18-H1 (VHH) VHH: EVQLVESGGGLVQPGGSLRLSCAASGSIESINRMAWYRQAPGKGLEFVSRISKGGSTNYPDSVKGRFTISRDNSKNTLYLQMNSLRAEDTAVYYCAAGPVWEQFWGQGTLVTVSS ?
52.8

Quick one: Kd for R28-H5 (VHH) VHH: QVQLVESGGGLVQPGGSLRLSCAASGRTFIAYAMGWFRQAPGKEREFVAAITNFAGGTTYYADSVKGRFTISRDNAKTTVYLQMNSLRAEDTAVYYCAADRSAQTMRQVRPVLPYWGQGTLVTVSS ?
11.1

Quick one: Kd for Rh34-H2 (VHH) VHH: EVQLVESGGGLVQPGGSLRLSCAASGRTISLYAVGWFRQAPGKEREFVSAISWTDSSTYYADSVKGRFTISRDNSKNTLYLQMNSLRAEDTAVYYCAADVSIRGLQKYEYDYWGQGTLVTVS ?
1330

---
Quick one: Kd for Rh46-H2 (VHH) VHH: EVQLVESGGGLVQPGGSLRLSCAASTRTFSSYIMGWFRQAPGKERELVSAISWSGRMTHYADSVKGRFTISRDNSKNTLYLQMNSLRAEDTAVYYCAADRTTAWGAPRSQYDSWGQGTLVTVS ?
426

Quick one: Kd for M75-H4 (VHH) VHH: QVQLVESGGGLVQPGGSLRLSCAASGRTFDNYVMAWFRQAPGKEREFVASISGSGSITNYANSVKDRFTISRDSSKNALYLQMNSLRAEDTAVYYCAAGSRRTYYREPKFYPSWGQGTLVTVSS ?
2.8

Quick one: Kd for Rh34-H4 (VHH) VHH: QVQLVESGGGLVQPGGSLRLSCAASGRTISLYAVGWFRRAPGKEREFVAAISWTDSSTYYADSVKGRFTISRDNSKNTLYLQMNSLRAEDTAVYYCAADVSIRGLQKYEYDYWGQGTLVTVSS ?
647

Quick one: Kd for M79-H5 (VHH) VHH: QVQLVESGGGLVQPGGSLRLSCAASGSTFSSSSVGWYRQAPGQQRELVAAITSGGSTNTADSVKGRFTISRDNAKNTVYLQMNSLRAEDTAVYYCNVAGRNWVPISRYSPGPYWGQGTLVTVSS ?
103

Quick one: Kd for Rh46-H5 (VHH) VHH: QVQLVESGGGLVQPGGSLRLSCAASTRTFSSYIMGWFRQAPGKERELVAAISWSGRMTHYADSVKGRFTISRDNAKNTVYLQMNSLRAEDTAIYSCAADRTTAWGAPRSQYDSWGQGTLVTVSS ?
233

Where do the numbers come from? From patent US20210253679A1.
